- tgt: T1, Recombinant human Glypican-3 (human, UniProt P51654 25-559, limits assumed, randomly biotinylated via Lysine residues (EZ-Link Sulfo-NHS-LC-LC-Biotin) where captured on Neutravidin; not biotinylated where used as competitor in solution)
- T1 construct: Bought protein; The biotinylated and the non-biotinylated preparation are written as one molecule; also called GPC3; GPC-3
- testSummary: direct ELISA; biotinylated human Glypican-3 (1 ug/ml) captured via Neutravidin, dilution series of purified mutein
Consider the following binders; for each one, report its pKd.
Just the number, please; pKd means minus log10 of the concentration in mol/L.

// sample PIE-G3G (designed binder, C-terminal Strep-tag II; also called Lcn2 mutein; not shown: C-terminal Strep-tag II) QDSTSDLIPAPPLSKVPLQQNFQDNQFHGKWYVVGMAGNASLREDKDPRKMNATIYELKEDKSYNVTKVRFWHKKCYYSITTFVPGSQPGEFTLGDIKSYPGWTSYLVRVVSTNYNQHAMVFFKGVRQNREWFSITLYGRTKELTSELKENFIRFSKSLGLPENHIVFPVPIDQCIDGSAWSHPQFEK , its pKd was 9.57

pKd recorded for this binder, PIE-G3E (designed binder, C-terminal Strep-tag II; also called Lcn2 mutein; not shown: C-terminal Strep-tag II) QDSTSDLIPAPPLSKVPLQQNFQDNQFHGKWYVVGSAGNHRLREDKDPRKMHATIYELKEDKSYNVTNVTFREKKCHYSIGTFVPGSQPGEFTLGKIKSNPGMTSFLVRVVSTNYNQHAMVFFKKVHQNREQFNITLYGRTKELTSELKENFIRFSKSLGLPENHIVFPVPIDQCIDGSAWSHPQFEK , is 9.70

Lab book: pKd of PIE-G3B (designed binder, C-terminal Strep-tag II; also called Lcn2 mutein; not shown: C-terminal Strep-tag II) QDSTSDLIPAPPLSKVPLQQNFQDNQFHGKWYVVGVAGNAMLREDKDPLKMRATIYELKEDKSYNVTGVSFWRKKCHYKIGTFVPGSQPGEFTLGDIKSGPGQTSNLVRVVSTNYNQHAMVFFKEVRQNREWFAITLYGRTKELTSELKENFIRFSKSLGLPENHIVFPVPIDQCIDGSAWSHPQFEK noted as 9.57
